- TEST DESCRIPTION: drug combination growth inhibition, ovarian cancer – cell-based, oncology-focused library, rucaparib conditional, profiling panel (AID 1508598)
- RUN PARAMETERS: patient-derived ovarian cancer cells, CellTiter-Glo viability, 144 h; at 0.000305 µM; OCI-C5x cells; without rucaparib
The source made the active and inactive calls.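 The calls were made as follows: active = normalized viability below 100% at a tested concentration; inactive = the rest.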 Where a SMILES comes first, the peptide text is derived from it. The star is where a group is joined. Cbz = O=C(OCc1ccccc1)*; CH2F = FC*
Outcomes: active, inactive

# MOLECULE, LABEL CLASS
measured = [
    ("CC1=C(/C=C/C(C)=C\\C=C\\C(C)=C/C(=O)O)C(C)(C)CCC1", "inactive"),
    ("CC[C@]1(O)C[C@@H]2CN(CCc3c([nH]c4ccccc34)[C@@](C(=O)OC)(c3cc4c(cc3OC)N(C=O)[C@@H]3C45CCN4CC=C[C@](CC)([C@H]45)[C@H](OC(C)=O)[C@]3(O)C(=O)OC)C2)C1 (stereo partly specified)", "active"),
    ("CC[C@]1(O)C[C@@H]2CN(CCc3c([nH]c4ccccc34)[C@@](C(=O)OC)(c3cc4c(cc3OC)N(C=O)[C@H]3[C@@](O)(C(=O)OC)[C@H](OC(C)=O)[C@]5(CC)C=CCN6CC[C@@]43[C@@H]65)C2)C1", "inactive"),
    ("COC(=O)C[C@H](NC(=O)[C@H](C)NC(=O)[C@@H](NC(=O)OCc1ccccc1)C(C)C)C(=O)CF (Cbz-Val-Ala-Asp(OMe)-CH2F)", "inactive"),
    ("CC(=O)O[C@@]1(C(C)=O)CC[C@H]2[C@@H]3C[C@H](C)C4=CC(=O)CC[C@]4(C)[C@@H]3CC[C@@]21C", "inactive"),
    ("CC(=O)O[C@]12CO[C@@H]1C[C@H](O)[C@]1(C)C(=O)[C@H](O)C3=C(C)[C@H](OC(=O)[C@H](O)[C@@H](NC(=O)OC(C)(C)C)c4ccccc4)C[C@](O)([C@H](OC(=O)c4ccccc4)C21)C3(C)C (stereo partly specified)", "inactive"),
]

* * *

- TEST DESCRIPTION: yeast 75Q aggregation reduction – 75Q-TubU reporter (AID 1593)
- RUN PARAMETERS: Yeast 75Q polyglutamine aggregation reporter
Peptide text beside a SMILES is read from it.
Parameter threshold = 1. Response is Fulfilled when score meets or exceeds it, else Not fulfilled.

# COMPOUND, LABEL CLASS
records = [
    ("CCC(=O)c1ccc2c(c1)N(CC(C)N(C)C)c1ccccc1S2 (configuration not stated)", "Fulfilled"),
    ("NCCCCC(N)C(=O)NCC(=O)NC(Cc1cnc[nH]1)C(=O)NC(CCCCN)C(=O)O (configuration not stated) (H-KGHK-OH; configuration not given here)", "Fulfilled"),
    ("CCCCCCCCCCCCCCCCCC(=O)OC(CC(=O)O)C[N+](C)(C)C (configuration not stated)", "Not fulfilled"),
    ("CN=C(N)NCCCC(N)C(=O)O (configuration not stated)", "Fulfilled"),
    ("OCc1cc2c(cn1)[nH]c1ccccc12", "Not fulfilled"),
    ("CO/N=C(\\C(=O)NC1C(=O)N2C(C(=O)O)=C(CSc3nc(=O)c(O)nn3C)CS[C@H]12)c1csc(N)n1 (some centres not stated)", "Fulfilled"),
    ("CCN(CCCc1ccccc1)CCCc1ccccc1 (tested in a mixture with another compound)", "Fulfilled"),
    ("C=C1C(=O)OC2C1CCC1(C)CCC=C(C)C21 (configuration not stated)", "Not fulfilled"),
    ("NC[C@H]1O[C@H](O[C@H]2[C@H](O)[C@@H](O[C@H]3O[C@H](CO)[C@@H](O)[C@H](N)[C@H]3O)[C@H](N)C[C@@H]2N)[C@H](O)[C@@H](O)[C@@H]1O", "Fulfilled"),
    ("CC12CC[C@@H]3c4ccc(O)cc4CCC3[C@@H]1CCC2=O (some centres not stated)", "Not fulfilled"),
    ("NC[C@@H]1O[C@H](OC2[C@@H](O)[C@H](O[C@@H]3[C@H](N)[C@@H](O)C[C@H](N)[C@H]3O[C@H]3O[C@H](CO)[C@@H](O)[C@H](O)[C@H]3N)O[C@@H]2CO)[C@H](N)[C@@H](O)[C@@H]1O (some centres not stated)", "Not fulfilled"),
]
